tgt: wtKIT (Homo sapiens, UniProt P10721)
Construct: 1888289AM in the reaction mixtures
Sequence (P10721 26-976): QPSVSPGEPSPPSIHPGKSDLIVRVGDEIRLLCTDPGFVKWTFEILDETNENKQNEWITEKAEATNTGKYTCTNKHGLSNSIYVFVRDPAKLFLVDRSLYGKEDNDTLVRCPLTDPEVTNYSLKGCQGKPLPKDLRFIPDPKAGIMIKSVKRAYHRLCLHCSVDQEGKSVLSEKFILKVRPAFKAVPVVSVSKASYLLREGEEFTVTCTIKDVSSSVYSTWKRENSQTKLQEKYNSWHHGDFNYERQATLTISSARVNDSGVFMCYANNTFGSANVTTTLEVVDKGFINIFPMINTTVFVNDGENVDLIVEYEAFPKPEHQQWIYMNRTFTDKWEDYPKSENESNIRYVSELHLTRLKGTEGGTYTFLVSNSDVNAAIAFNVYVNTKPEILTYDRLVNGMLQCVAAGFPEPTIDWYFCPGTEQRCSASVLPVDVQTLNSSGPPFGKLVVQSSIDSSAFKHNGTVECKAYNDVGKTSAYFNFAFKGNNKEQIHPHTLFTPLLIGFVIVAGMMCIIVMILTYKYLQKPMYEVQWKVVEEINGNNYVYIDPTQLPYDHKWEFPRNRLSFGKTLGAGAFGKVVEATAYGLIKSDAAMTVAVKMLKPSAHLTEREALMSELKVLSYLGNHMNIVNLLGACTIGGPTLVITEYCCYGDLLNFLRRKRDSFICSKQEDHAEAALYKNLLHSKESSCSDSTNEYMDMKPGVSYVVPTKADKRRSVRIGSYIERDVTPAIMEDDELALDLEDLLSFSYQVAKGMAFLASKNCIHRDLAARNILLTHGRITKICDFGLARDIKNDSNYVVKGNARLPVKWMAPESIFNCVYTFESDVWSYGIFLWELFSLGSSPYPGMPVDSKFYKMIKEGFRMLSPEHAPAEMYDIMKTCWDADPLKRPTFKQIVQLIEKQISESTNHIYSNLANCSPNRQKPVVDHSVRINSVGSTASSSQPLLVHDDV
assay_text: HTRF biochemical assay, wtKIT (phosphorylation of a peptide substrate)
reported_conditions: Table 4
pIC50: −log10 of the molar value.
readout_name: pIC50

In the examples that follow, each entry is paired with its recorded pIC50.
>>> measured("Cc1ccc(-c2noc(-c3cccnc3)n2)cc1NC(=O)c1cnc2ccccn12")
"6.30 to 7.30"
>>> measured("COCc1ccn2c(C(=O)Nc3cc(-c4noc([C@@H]5CC6(CC6)CN5)n4)ccc3C)cnc2c1")
"≥ 7.30"
>>> measured("Cc1ccc(-c2noc([C@H]3C[C@@H]3F)n2)cc1NC(=O)c1cnc2ccc(-c3cscn3)cn12")
"≥ 7.30"
>>> measured("Cc1ccc(-c2noc([C@@H]3CC(=O)N3)n2)cc1NC(=O)c1cnc2ccccn12 (racemic)")
"6.30 to 7.30"

INPUT: Item under review: "Cc1ccc(-c2noc([C@H]3C[C@@H]3F)n2)cc1NC(=O)c1cnc2ccc(OC(C)C)cn12" . Reported pIC50?
OUTPUT: ≥ 7.30

INPUT: Entry CNCC(O)Cc1nc(-c2ccc(C)c(NC(=O)c3cnc4ccccn34)c2)no1 (centres unmarked) has what pIC50?
OUTPUT: 4.52 to 5.30

INPUT: Consider the molecule "Cc1ccc(-c2noc(CC(=O)O)n2)cc1NC(=O)c1cnc2ccccn12" and give its measured pIC50.
OUTPUT: 6.30 to 7.30

INPUT: What value of pIC50 has been reported for the following molecule? "Cc1ccnc(-c2nc(-c3ccc(C)c(NC(=O)c4cnc5cc(C)ccn45)c3)no2)c1"
OUTPUT: ≥ 7.30

* * *

assay_text: Three time point assay for plasma, brain and testes distribution after oral dosing
Format: in vivo, rat
reported_conditions: rat, oral dosing, time point 2 h
Returns one of t or f; t when Testes concentration is >= 600 ng/g.

Some entries whose results are on file:
>>> class_assignment("Cc1ccc(-c2noc(C3CC(OCCF)C3)n2)cc1NC(=O)c1cnc2ccccn12 (stereo not shown) [Compound I-369]")
"t"
>>> class_assignment("Cc1ccc(-c2noc([C@H]3CC(F)(F)CN3)n2)cc1NC(=O)c1cnc2ccccn12 [Compound I-359]")
"f"
>>> class_assignment("Cc1ccc(-c2noc(C3(C)CC(F)(F)CN3)n2)cc1NC(=O)c1cnc2ccccn12 (racemic) [Compound I-328]")
"f"

INPUT: Is it the case that Cc1ccc(-c2noc([C@H]3C[C@@H]3F)n2)cc1NC(=O)c1cnc2cc(OC(F)(F)F)ccn12 [Compound I-87] has Testes concentration reaching or exceeding 600 ng/g?
OUTPUT: t

INPUT: Please check the record COc1ccn2c(C(=O)Nc3cc(-c4noc(CC(O)C(F)F)n4)ccc3C)cnc2c1 (single isomer, unassigned) [Compound I-40] and state if its Testes concentration is at or above 600 ng/g.
OUTPUT: f

INPUT: Item Cc1ccc(-c2noc([C@H]3C[C@@H]3F)n2)cc1NC(=O)c1cnc2ccc(C#N)cn12 [Compound I-384] with Testes concentration of 600 ng/g or above?
OUTPUT: f

INPUT: Determine whether measured Testes concentration meets or exceeds 600 ng/g for Cc1ccc(-c2noc(C3(O)CC(F)(F)C3)n2)cc1NC(=O)c1cnc2ccccn12 [Compound I-380]
OUTPUT: f

* * *

assay_text: Three time point assay for plasma, brain and testes distribution after oral dosing
Assay type: in vivo, rat
reported_conditions: rat, oral dosing, time point 2 h
Returns: string. Value is true if measured Brain concentration is below 30 ng/g, and false if it is greater than or equal to it.

Here's what some known entries look like.
>>> class_assignment("COC(=O)N1CC(c2nc(-c3ccc(Cl)c(NC(=O)c4cnc5ccccn45)c3)no2)C1")
"false"
>>> class_assignment("Cc1ccc(-c2noc(C3CCS(=O)(=O)C3)n2)cc1NC(=O)c1cnc2ccccn12 (racemic)")
"false"

INPUT: Consider "Cc1ccc(-c2noc([C@H]3C[C@@H]3F)n2)cc1NC(=O)c1cnc2cc(N3CCC3)ccn12" . Does its Brain concentration lie strictly below 30 ng/g?
OUTPUT: false

INPUT: Problem: For the molecule Cc1ccc(-c2noc(C(C)NS(C)(=O)=O)n2)cc1NC(=O)c1cnc2ccccn12 (single isomer, unassigned) [Compound I-237] , is Brain concentration under 30 ng/g?
OUTPUT: true

INPUT: Is 30 ng/g strictly greater than the molecule's reported Brain concentration? molecule: COc1ccn2c(C(=O)Nc3cc(-c4noc(CC(O)C(F)F)n4)ccc3C)cnc2c1 (single isomer, unassigned)
OUTPUT: false

INPUT: Record Cc1ccc(-c2noc(C3CCS(=O)(=O)N3)n2)cc1NC(=O)c1cnc2ccccn12 (racemic) : is its Brain concentration strictly below 30 ng/g?
OUTPUT: true

INPUT: hey, is Brain concentration for "Cc1ccc(-c2noc(CC(=O)O)n2)cc1NC(=O)c1cnc2ccccn12" lower than 30 ng/g or not?
OUTPUT: true

INPUT: Check if Brain concentration falls below 30 ng/g for "Cc1ccc(-c2noc(C3(N)CC4(CC(F)(F)C4)C3)n2)cc1NC(=O)c1cnc2ccccn12" .
OUTPUT: false

INPUT: Brain concentration under 30 ng/g? Item: "Cc1ccc(-c2noc([C@H]3C[C@@H]3F)n2)cc1NC(=O)c1cnc2cc(OC(C)C)ccn12"
OUTPUT: false

INPUT: Check if Brain concentration falls below 30 ng/g for Cc1ccc(-c2noc(C3CC(OCCF)C3)n2)cc1NC(=O)c1cnc2ccccn12 (centres unmarked) .
OUTPUT: false

INPUT: In the record for Cc1ccc(-c2noc(C3(C)CC(F)(F)CN3)n2)cc1NC(=O)c1cnc2ccccn12 (racemic) , is Brain concentration less than 30 ng/g?
OUTPUT: true
